Assign pEC50 to each entry below.
# System: DU-145
# protocol.summary: Cytotoxicity against human DU145 cells after 72 hrs by trypan blue exclusion assay
# Format: functional, cell-based
# test.conditions: DU-145, 72 h
Answers are plain numbers, as −log10 of the molar value.

CC[C@H]1OC(=O)[C@H](C)[C@@H](O[C@H]2C[C@@](C)(OC)[C@@H](O)[C@H](C)O2)[C@H](C)[C@@H](O[C@@H]2O[C@H](C)C[C@H](N(C)Cc3ccc(-c4cn(CCCCCC(=O)NO)nn4)cc3)[C@H]2O)[C@](C)(O)C[C@@H](C)CN(C)[C@H](C)[C@@H](O)[C@]1(C)O | 5.84
O=C(CCCCCCC(=O)Nc1ccccc1)NO | 5.67
CC[C@H]1OC(=O)[C@H](C)[C@@H](O[C@H]2C[C@@](C)(OC)[C@@H](O)[C@H](C)O2)[C@H](C)[C@@H](O[C@@H]2O[C@H](C)C[C@H](N(C)Cc3ccc(-c4cn(CCCCCCCCC(=O)NO)nn4)cc3)[C@H]2O)[C@](C)(OC)C[C@@H](C)C(=O)[C@H](C)[C@@H](O)[C@]1(C)O | 5.09
CC[C@H]1OC(=O)[C@H](C)[C@@H](O)[C@H](C)[C@@H](O[C@@H]2O[C@H](C)C[C@H](N(C)Cc3ccc(-c4cn(CCCCCC(=O)NO)nn4)cc3)[C@H]2O)[C@](C)(OC)C[C@@H](C)C(=O)[C@H](C)[C@@H](O)[C@]1(C)O | 5.48

Attention now shifts to the item below.
Prompt line: Entry CC[C@H]1OC(=O)[C@H](C)[C@@H](O[C@H]2C[C@@](C)(OC)[C@@H](O)[C@H](C)O2)[C@H](C)[C@@H](O[C@@H]2O[C@H](C)C[C@H](N(C)Cc3ccc(-c4cn(CCCCCCCC(=O)NO)nn4)cc3)[C@H]2O)[C@](C)(O)C[C@@H](C)CN(C)[C@H](C)[C@@H](O)[C@]1(C)O , system DU-145: what pEC50 was measured?
Response line: 5.23

====

Assign IC50 to each entry below.
# tested.system: Histone deacetylase 8 (Homo sapiens)
# Sequence (Q9BY41 whole entry): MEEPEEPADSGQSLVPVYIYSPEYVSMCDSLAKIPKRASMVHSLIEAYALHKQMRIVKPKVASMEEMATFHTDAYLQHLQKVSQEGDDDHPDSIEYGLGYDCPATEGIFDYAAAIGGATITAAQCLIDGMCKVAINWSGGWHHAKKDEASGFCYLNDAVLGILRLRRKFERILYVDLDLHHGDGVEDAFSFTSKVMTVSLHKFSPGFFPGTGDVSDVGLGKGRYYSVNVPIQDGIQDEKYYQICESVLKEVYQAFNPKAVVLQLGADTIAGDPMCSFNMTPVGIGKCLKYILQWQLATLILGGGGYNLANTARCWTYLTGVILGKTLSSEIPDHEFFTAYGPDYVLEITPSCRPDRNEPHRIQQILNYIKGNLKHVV
# protocol.summary: Inhibition of HDAC8 from human HeLa cells nuclear extract by cell free fluorimetric assay
Give bare numbers, in µM.

Past entries and their recorded results:
CC[C@H]1OC(=O)[C@H](C)[C@@H](O[C@H]2C[C@@](C)(OC)[C@@H](O)[C@H](C)O2)[C@H](C)[C@@H](O[C@@H]2O[C@H](C)C[C@H](N(C)Cc3ccc(-c4cn(CCCCCC(=O)NO)nn4)cc3)[C@H]2O)[C@](C)(O)C[C@@H](C)CN(C)[C@H](C)[C@@H](O)[C@]1(C)O | 4.73
CC[C@H]1OC(=O)[C@H](C)[C@@H](O)[C@H](C)[C@@H](O[C@@H]2O[C@H](C)C[C@H](N(C)Cc3ccc(-c4cn(CCCCCCCC(=O)NO)nn4)cc3)[C@H]2O)[C@](C)(O)C[C@@H](C)CN(C)[C@H](C)[C@@H](O)[C@]1(C)O | 6.78
CC[C@H]1OC(=O)[C@H](C)[C@@H](O[C@H]2C[C@@](C)(OC)[C@@H](O)[C@H](C)O2)[C@H](C)[C@@H](O[C@@H]2O[C@H](C)C[C@H](N(C)Cc3ccc(-c4cn(CCCCCCCCC(=O)NO)nn4)cc3)[C@H]2O)[C@](C)(O)C[C@@H](C)CN(C)[C@H](C)[C@@H](O)[C@]1(C)O | 11.1

Attention now shifts to the item below.
Prompt line: Entry CC[C@H]1OC(=O)[C@H](C)[C@@H](O)[C@H](C)[C@@H](O[C@@H]2O[C@H](C)C[C@H](N(C)Cc3ccc(-c4cn(CCCCCC(=O)NO)nn4)cc3)[C@H]2O)[C@](C)(O)C[C@@H](C)CN(C)[C@H](C)[C@@H](O)[C@]1(C)O , system Histone deacetylase 8 (Homo sapiens): what IC50 was measured?
Response line: 3.74

====

Assign IC50 to each entry below.
# tested.system: Histone deacetylase (HDAC1 and HDAC2) (Homo sapiens, UniProt Q13547+Q92769)
# protocol.summary: Inhibition of HDAC1/2 from human HeLa cells nuclear extract by cell free fluorimetric assay
# Format: cell-based
One number for each entry, in nM.

Past entries and their recorded results:
CC[C@H]1OC(=O)[C@H](C)[C@@H](O[C@H]2C[C@@](C)(OC)[C@@H](O)[C@H](C)O2)[C@H](C)[C@@H](O[C@@H]2O[C@H](C)C[C@H](N(C)Cc3ccc(-c4cn(CCCCCCC(=O)NO)nn4)cc3)[C@H]2O)[C@](C)(OC)C[C@@H](C)C(=O)[C@H](C)[C@@H](O)[C@]1(C)O | 4.1
CC[C@H]1OC(=O)[C@H](C)[C@@H](O)[C@H](C)[C@@H](O[C@@H]2O[C@H](C)C[C@H](N(C)Cc3ccc(-c4cn(CCCCCC(=O)NO)nn4)cc3)[C@H]2O)[C@](C)(O)C[C@@H](C)CN(C)[C@H](C)[C@@H](O)[C@]1(C)O | 88.8
CC[C@H]1OC(=O)[C@H](C)[C@@H](O)[C@H](C)[C@@H](O[C@@H]2O[C@H](C)C[C@H](N(C)Cc3ccc(-c4cn(CCCCCC(=O)NO)nn4)cc3)[C@H]2O)[C@](C)(OC)C[C@@H](C)C(=O)[C@H](C)[C@@H](O)[C@]1(C)O | 44.3
CC[C@H]1OC(=O)[C@H](C)[C@@H](O[C@H]2C[C@@](C)(OC)[C@@H](O)[C@H](C)O2)[C@H](C)[C@@H](O[C@@H]2O[C@H](C)C[C@H](N(C)Cc3ccc(-c4cn(CCCCCCCCC(=O)NO)nn4)cc3)[C@H]2O)[C@](C)(OC)C[C@@H](C)C(=O)[C@H](C)[C@@H](O)[C@]1(C)O | 169.8
CC[C@H]1OC(=O)[C@H](C)[C@@H](O)[C@H](C)[C@@H](O[C@@H]2O[C@H](C)C[C@H](N(C)Cc3ccc(NC(=O)CCCCCCC(=O)NO)cc3)[C@H]2O)[C@](C)(O)C[C@@H](C)CN(C)[C@H](C)[C@@H](O)[C@]1(C)O | 109.8
CC[C@H]1OC(=O)[C@H](C)[C@@H](O)[C@H](C)[C@@H](O[C@@H]2O[C@H](C)C[C@H](N(C)Cc3ccc(-c4cn(CCCCCCC(=O)NO)nn4)cc3)[C@H]2O)[C@](C)(O)C[C@@H](C)CN(C)[C@H](C)[C@@H](O)[C@]1(C)O | 10.6
CC[C@H]1OC(=O)[C@H](C)[C@@H](O[C@H]2C[C@@](C)(OC)[C@@H](O)[C@H](C)O2)[C@H](C)[C@@H](O[C@@H]2O[C@H](C)C[C@H](N(C)Cc3ccc(-c4cn(CCCCCCCC(=O)NO)nn4)cc3)[C@H]2O)[C@](C)(O)C[C@@H](C)CN(C)[C@H](C)[C@@H](O)[C@]1(C)O | 58.9
CC[C@H]1OC(=O)[C@H](C)[C@@H](O[C@H]2C[C@@](C)(OC)[C@@H](O)[C@H](C)O2)[C@H](C)[C@@H](O[C@@H]2O[C@H](C)C[C@H](N(C)Cc3ccc(-c4cn(CCCCCCCC(=O)NO)nn4)cc3)[C@H]2O)[C@](C)(OC)C[C@@H](C)C(=O)[C@H](C)[C@@H](O)[C@]1(C)O | 55.6
CC[C@H]1OC(=O)[C@H](C)[C@@H](O)[C@H](C)[C@@H](O[C@@H]2O[C@H](C)C[C@H](N(C)Cc3ccc(-c4cn(CCCCCCC(=O)NO)nn4)cc3)[C@H]2O)[C@](C)(OC)C[C@@H](C)C(=O)[C@H](C)[C@@H](O)[C@]1(C)O | 1.9
CC[C@H]1OC(=O)[C@H](C)[C@@H](O[C@H]2C[C@@](C)(OC)[C@@H](O)[C@H](C)O2)[C@H](C)[C@@H](O[C@@H]2O[C@H](C)C[C@H](N(C)Cc3ccc(-c4cn(CCCCCC(=O)NO)nn4)cc3)[C@H]2O)[C@](C)(OC)C[C@@H](C)C(=O)[C@H](C)[C@@H](O)[C@]1(C)O | 37

Attention now shifts to the item below.
Prompt line: # get_value(readout='IC50', item= CC[C@H]1OC(=O)[C@H](C)[C@@H](O[C@H]2C[C@@](C)(OC)[C@@H](O)[C@H](C)O2)[C@H](C)[C@@H](O[C@@H]2O[C@H](C)C[C@H](N(C)Cc3ccc(-c4cn(CCCCCCC(=O)NO)nn4)cc3)[C@H]2O)[C@](C)(O)C[C@@H](C)CN(C)[C@H](C)[C@@H](O)[C@]1(C)O )
Response line: 13.9

====

Assign IC50 to each entry below.
# tested.system: Histone deacetylase (HDAC1 and HDAC2) (Homo sapiens, UniProt Q13547+Q92769)
# protocol.summary: Inhibition of HDAC1/2 from human HeLa cells nuclear extract by cell free fluorimetric assay
# Type: cell-based
Give bare numbers, in nM.

Past entries and their recorded results:
CC[C@H]1OC(=O)[C@H](C)[C@@H](O[C@H]2C[C@@](C)(OC)[C@@H](O)[C@H](C)O2)[C@H](C)[C@@H](O[C@@H]2O[C@H](C)C[C@H](N(C)Cc3ccc(-c4cn(CCCCCCCCCC(=O)NO)nn4)cc3)[C@H]2O)[C@](C)(OC)C[C@@H](C)C(=O)[C@H](C)[C@@H](O)[C@]1(C)O | 223.4
CC[C@H]1OC(=O)[C@H](C)[C@@H](O[C@H]2C[C@@](C)(OC)[C@@H](O)[C@H](C)O2)[C@H](C)[C@@H](O[C@@H]2O[C@H](C)C[C@H](N(C)Cc3ccc(-c4cn(CCCCCCCCC(=O)NO)nn4)cc3)[C@H]2O)[C@](C)(O)C[C@@H](C)CN(C)[C@H](C)[C@@H](O)[C@]1(C)O | 145.5
CC[C@H]1OC(=O)[C@H](C)[C@@H](O)[C@H](C)[C@@H](O[C@@H]2O[C@H](C)C[C@H](N(C)Cc3ccc(-c4cn(CCCCCCCC(=O)NO)nn4)cc3)[C@H]2O)[C@](C)(O)C[C@@H](C)CN(C)[C@H](C)[C@@H](O)[C@]1(C)O | 72.4
CC[C@H]1OC(=O)[C@H](C)[C@@H](O[C@H]2C[C@@](C)(OC)[C@@H](O)[C@H](C)O2)[C@H](C)[C@@H](O[C@@H]2O[C@H](C)C[C@H](N(C)Cc3ccc(-c4cn(CCCCCC(=O)NO)nn4)cc3)[C@H]2O)[C@](C)(O)C[C@@H](C)CN(C)[C@H](C)[C@@H](O)[C@]1(C)O | 91.6
CC[C@H]1OC(=O)[C@H](C)[C@@H](O[C@H]2C[C@@](C)(OC)[C@@H](O)[C@H](C)O2)[C@H](C)[C@@H](O[C@@H]2O[C@H](C)C[C@H](N(C)Cc3ccc(NC(=O)CCCCCCC(=O)NO)cc3)[C@H]2O)[C@](C)(O)C[C@@H](C)CN(C)[C@H](C)[C@@H](O)[C@]1(C)O [AZITHROMYCINARYLALKYLHYDROXAMIC ACID] | 107.1

Consider the following items and state reported IC50 for each.
1. CC[C@H]1OC(=O)[C@H](C)[C@@H](O[C@H]2C[C@@](C)(OC)[C@@H](O)[C@H](C)O2)[C@H](C)[C@@H](O[C@@H]2O[C@H](C)C[C@H](N(C)Cc3ccc(-c4cn(CCCCCCCCCC(=O)NO)nn4)cc3)[C@H]2O)[C@](C)(O)C[C@@H](C)CN(C)[C@H](C)[C@@H](O)[C@]1(C)O
2. CC[C@H]1OC(=O)[C@H](C)[C@@H](O)[C@H](C)[C@@H](O[C@@H]2O[C@H](C)C[C@H](N(C)Cc3ccc(-c4cn(CCCCCCCC(=O)NO)nn4)cc3)[C@H]2O)[C@](C)(OC)C[C@@H](C)C(=O)[C@H](C)[C@@H](O)[C@]1(C)O

Response line:
1: 226.7; 2: 123

Where do these numbers come from? They come from ChEMBL document CHEMBL1139366.
